Catalogue of EC50 readings, one per entry.
STUDY_SYSTEM: recombinant human pancreatic GLK (Homo sapiens)
Sequence (P35557 1-465): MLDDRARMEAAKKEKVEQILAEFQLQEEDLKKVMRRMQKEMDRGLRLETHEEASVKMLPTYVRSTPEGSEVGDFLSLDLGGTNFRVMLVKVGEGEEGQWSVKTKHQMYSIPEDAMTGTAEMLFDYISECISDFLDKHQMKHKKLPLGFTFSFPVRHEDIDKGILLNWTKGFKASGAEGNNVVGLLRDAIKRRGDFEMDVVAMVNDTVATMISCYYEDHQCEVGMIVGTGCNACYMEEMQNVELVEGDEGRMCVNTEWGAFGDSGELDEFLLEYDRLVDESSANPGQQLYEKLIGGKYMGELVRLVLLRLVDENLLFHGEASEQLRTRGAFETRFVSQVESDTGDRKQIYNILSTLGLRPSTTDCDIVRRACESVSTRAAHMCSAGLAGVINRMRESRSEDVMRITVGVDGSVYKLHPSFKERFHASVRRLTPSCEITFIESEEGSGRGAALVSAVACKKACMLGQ
EXPERIMENTAL_DETAILS: biochemical
Write the number in nM without appending the unit.

CHEMICAL_STRING: O=C(Nc1ccc(F)cn1)[C@H](COCCO)Oc1ncnc2c1cnn2-c1c(Cl)cccc1Cl
STUDY_SYSTEM: recombinant human pancreatic GLK (Homo sapiens)
UNIT_NAME: nM
EC50: 215
//
CHEMICAL_STRING: Cc1ccc(NC(=O)[C@H](CN2CC(O)C2)Oc2ncnc3c2cnn3-c2ncccc2Cl)nc1
STUDY_SYSTEM: recombinant human pancreatic GLK (Homo sapiens)
UNIT_NAME: nM
EC50: 570
//
CHEMICAL_STRING: Cc1cnc(NC(=O)[C@H](COC2CCC2)Oc2ncnc3c2cnn3-c2ncccc2Cl)cn1
STUDY_SYSTEM: recombinant human pancreatic GLK (Homo sapiens)
UNIT_NAME: nM
EC50: 140

// next item, EC50 requested
Item `COC[C@H](C)OC[C@H](Oc1ncnc2c1cnn2-c1ccccc1Cl)C(=O)Nc1ccc(C)cn1` was tested on recombinant human pancreatic GLK (Homo sapiens); the reported EC50 is 490

----------
Catalogue of EC50 readings, one per entry.
STUDY_SYSTEM: recombinant human pancreatic GLK (Homo sapiens, UniProt P35557)
EXPERIMENTAL_DETAILS: biochemical

COMPOUND: Cc1cccnc1NC(=O)[C@H](COC(C)C)Oc1ncnc2c1cnn2-c1ncccc1Cl
STUDY_SYSTEM: recombinant human pancreatic GLK (Homo sapiens, UniProt P35557)
TEST_VALUE: > 100 µM

Item `COCC[C@@H](Oc1ncnc2c1cnn2-c1ccccn1)C(=O)Nc1ccc(C)cn1` was tested on recombinant human pancreatic GLK (Homo sapiens, UniProt P35557); the reported EC50 is > 100 µM

Item COC[C@@H](Oc1ncnc2c1cnn2-c1ccccc1Cl)C(=O)Nc1ccc(C)cn1 [Example 2] was tested on recombinant human pancreatic GLK (Homo sapiens, UniProt P35557); the reported EC50 is ≥ 100 µM

Item `COCC[C@@H](Oc1ncnc2c1cnn2-c1ccccc1OC)C(=O)Nc1nc(C)cs1` was tested on recombinant human pancreatic GLK (Homo sapiens, UniProt P35557); the reported EC50 is ≥ 100 µM

Item `Cc1nc(NC(=O)[C@H](COC(C)C)Oc2ncnc3c2cnn3-c2ncccc2Cl)nn1C` was tested on recombinant human pancreatic GLK (Homo sapiens, UniProt P35557); the reported EC50 is > 100 µM

----------
STUDY_SYSTEM: recombinant human pancreatic GLK (Homo sapiens)
EXPERIMENTAL_DETAILS: biochemical
pEC50: −log10 of the molar value.
QUANTITY_KIND: pEC50

The cases that follow already have their pEC50 on record.
COMPOUND: Cc1ccc(NC(=O)C(CCS(C)(=O)=O)Oc2ncnc3c2cnn3C)nc1 (stereo not shown)
STUDY_SYSTEM: recombinant human pancreatic GLK (Homo sapiens)
pEC50: < 4.00
--
COMPOUND: COC[C@@H](Oc1ncnc2c1cnn2-c1ccccc1OC)C(=O)Nc1ccc(C)cn1 [Example 5]
STUDY_SYSTEM: recombinant human pancreatic GLK (Homo sapiens)
pEC50: ≤ 4.00
--
COMPOUND: COCCC(Oc1ncnc2c1cnn2C(C)C)C(=O)Nc1ccc(C)cn1 (stereo not shown) [Example 76]
STUDY_SYSTEM: recombinant human pancreatic GLK (Homo sapiens)
pEC50: ≤ 4.00

// next item, pEC50 requested
pEC50 for CCC(C)C(Sc1ncnc2c1cnn2-c1ccccc1Cl)C(=O)Nc1ccon1 (stereo not shown) [Example 55] is < 4.70

----------
STUDY_SYSTEM: recombinant human pancreatic GLK (Homo sapiens)
Sequence (P35557 1-465): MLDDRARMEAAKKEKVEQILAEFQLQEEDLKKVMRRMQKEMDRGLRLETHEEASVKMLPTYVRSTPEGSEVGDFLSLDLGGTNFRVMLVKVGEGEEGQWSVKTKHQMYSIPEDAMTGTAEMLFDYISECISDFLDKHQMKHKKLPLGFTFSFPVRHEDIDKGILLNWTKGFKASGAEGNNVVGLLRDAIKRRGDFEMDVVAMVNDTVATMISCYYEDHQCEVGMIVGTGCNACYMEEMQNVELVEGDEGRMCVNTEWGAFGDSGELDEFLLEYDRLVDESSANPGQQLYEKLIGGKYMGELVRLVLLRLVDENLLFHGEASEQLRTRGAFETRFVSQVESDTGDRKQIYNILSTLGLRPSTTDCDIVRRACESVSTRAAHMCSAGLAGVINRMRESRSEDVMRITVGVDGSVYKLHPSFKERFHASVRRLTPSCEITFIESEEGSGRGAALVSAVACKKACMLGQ
EXPERIMENTAL_DETAILS: biochemical
QUANTITY_KIND: EC50

MOLECULE: COCC[C@@H](Oc1ncnc2c1cnn2-c1cccc(OC)c1)C(=O)Nc1ccc(C)cn1
EC50: ≥ 100 µM
--
MOLECULE: COCC[C@@H](Oc1ncnc2c1cnn2-c1cccc(C)c1)C(=O)Nc1ccc(C)cn1
EC50: ≥ 100 µM

// next item, EC50 requested
EC50 for CC(C)OCC(Oc1ncnc2c1cnn2-c1ccccc1Cl)C(=O)Nc1ncccn1 (stereo not drawn) is > 100 µM
